Each entry below carries its reported inhibition.
biological target: 5-hydroxytryptamine receptor 5A (Homo sapiens) (UniProt P47898); experiment: inverse agonism at human 5-HT5A receptor – cell-based, luminescence, full-deck HTS, counter-screen for OPRM1-OPRD1 heterodimer inverse agonist project, primary screen (AID 504634); settings: HTR5A cell line, at 9.3 µM, stronger effect = higher value;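 also: 0% = cells with DMSO and 100% = no-cell wells with DMSO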
Sequence (P47898 whole entry, looked up): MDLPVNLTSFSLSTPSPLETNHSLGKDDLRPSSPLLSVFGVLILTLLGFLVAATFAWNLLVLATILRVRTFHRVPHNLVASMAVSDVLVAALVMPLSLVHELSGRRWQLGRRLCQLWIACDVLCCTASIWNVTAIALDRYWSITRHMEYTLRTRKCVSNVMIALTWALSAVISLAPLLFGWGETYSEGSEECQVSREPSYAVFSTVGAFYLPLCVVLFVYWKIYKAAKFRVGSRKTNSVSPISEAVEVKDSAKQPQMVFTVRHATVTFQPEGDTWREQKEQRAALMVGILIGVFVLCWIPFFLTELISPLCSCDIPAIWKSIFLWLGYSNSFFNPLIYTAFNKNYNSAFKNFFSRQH
The campaign covered roughly 340,000 compounds. About 280 (0.082%) were called active. The sample as a whole holds a higher share of actives than the screen did.

>  <COMPOUND>
O=P(O)(CP(=O)(c1ccccc1)c1ccccc1)c1ccccc1

>  <inhibition / %>
4.79

$$$$
>  <COMPOUND>
CSCCC(NC(=O)COc1ccccc1)C(=O)OCCOc1ccc(Br)cc1 (stereo not drawn)

>  <inhibition / %>
-4.54

$$$$
>  <COMPOUND>
CCn1c(SCC(=O)N(C)C2CCS(=O)(=O)C2)nnc1-c1cccs1 (stereo not drawn)

>  <inhibition / %>
-22.6

$$$$
>  <COMPOUND>
COC(=O)c1ccc(NC(=S)NN2CCOCC2)cc1

>  <inhibition / %>
13.4

$$$$
>  <COMPOUND>
Cc1cc(C)n(-c2ccc3nncn3n2)n1

>  <inhibition / %>
5.02

$$$$
>  <COMPOUND>
N#CC1(C#N)C(C(=O)C23CC4CC(CC(C4)C2)C3)C12CCOCC2 (stereo not drawn)

>  <inhibition / %>
20.3

$$$$
>  <COMPOUND>
COCCn1c(SCC(=O)Nc2ccc3c(c2)CCC3)nc2ccccc2c1=O

>  <inhibition / %>
4.39

$$$$
>  <COMPOUND>
Cc1cc(-c2nc(C)c(-c3nnc(SCC(=O)Nc4ccccc4)n3C)s2)no1

>  <inhibition / %>
0.1

$$$$
>  <COMPOUND>
CSCCC(NC(=O)COc1ccccc1)C(=O)OCC(=O)c1cc2ccccc2o1 (stereo not drawn)

>  <inhibition / %>
33.3

$$$$
>  <COMPOUND>
COc1ccc(CCNC(=O)COc2cc(C)cc3oc(=O)c(C)c(C)c23)cc1OC

>  <inhibition / %>
-41.4

$$$$
>  <COMPOUND>
COCc1cc(=O)[nH]c(SC)n1

>  <inhibition / %>
-5.28

$$$$
>  <COMPOUND>
COc1ccc(CNC(=O)C(c2ccc(O)cc2)N(Cc2ccco2)C(=O)c2snc(C(N)=O)c2N)cc1 (stereo not drawn)

>  <inhibition / %>
3.12

$$$$
>  <COMPOUND>
CCCCCCCC1(C)NC(=O)N(CC(=O)Nc2cc(C)on2)C1=O (stereo not drawn)

>  <inhibition / %>
-14.9

$$$$
>  <COMPOUND>
CC(=O)c1ccc(Oc2cc(C)nc(-n3nc(C)cc3C)n2)cc1

>  <inhibition / %>
6.21

$$$$
>  <COMPOUND>
Cc1cc(NC(=O)CCN2CCN(Cc3ccccc3)CC2)ccc1Br

>  <inhibition / %>
-5.24

$$$$
>  <COMPOUND>
CC/C(=C\c1ccc(Cl)cc1)c1ccncc1

>  <inhibition / %>
-7.07

$$$$
>  <COMPOUND>
CC(C)Cn1cnc2c1c(=O)n(CC(O)c1ccccc1)c(=O)n2CC(C)C (stereo not drawn)

>  <inhibition / %>
-27.9

$$$$
>  <COMPOUND>
CC(=O)N(O)CCCCCNC(=O)CCC(=O)N(O)CCCCCNC(=O)CCC(=O)N(O)CCCCCNC(=O)CCC(=O)O

>  <inhibition / %>
2.24

$$$$
>  <COMPOUND>
COc1ccc(/C=C/C(=O)c2cc(Br)ccc(=O)c2O)cc1

>  <inhibition / %>
-37

$$$$
>  <COMPOUND>
CC1(c2ccc3ccccc3c2)NC(=O)N(CC(N)=O)C1=O (stereo not drawn)

>  <inhibition / %>
1.06

$$$$
>  <COMPOUND>
Cc1cc(NC(=O)CSC2=NS(=O)(=O)c3cc(Cl)ccc3N2)no1

>  <inhibition / %>
6.86

$$$$
>  <COMPOUND>
COc1cc(CCC(=O)Nc2ccncc2Cl)cc(OC)c1OC

>  <inhibition / %>
6.7

$$$$
>  <COMPOUND>
CC(OC(=O)c1ccccc1NCCO)C(=O)Nc1ccnn1C(C)C (stereo not drawn)

>  <inhibition / %>
-11.8

$$$$
